The measured values listed here are drawn from patent US20250340659A1.

Molecular target: T1, canine OX40L, full length membrane form, expressed on HEK293 cells (canine)
T1 construct: also called OX40L expressing HEK; HEK OX40L cells
T1 chain: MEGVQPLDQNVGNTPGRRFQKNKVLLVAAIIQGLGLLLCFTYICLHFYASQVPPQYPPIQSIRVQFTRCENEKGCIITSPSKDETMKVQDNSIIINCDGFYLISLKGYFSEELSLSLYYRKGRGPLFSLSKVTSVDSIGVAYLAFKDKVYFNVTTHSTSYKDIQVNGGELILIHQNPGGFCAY
Assay: flow cytometry, OX40L HEK minus WT HEK
# GEO mean difference listing for each entry below
Give the figure only, with no unit attached.

Some solved cases for reference:
[[record]]
binder = "PMX105 (antibody, V domains shown) VH: EVQLVESGGDLVKPGGSLRLSCVASGFTFNTYHMNWVRQAPGKGLHWVAFINSGGSGTSYEDTVQGRFTISRDYAKNTLYLQMNSLRAEDTAVYYCACGSIWTHFDYWGQGTLVTVSS VL: SYVLTQLPSVSVTLRQTAHITCGGDIIGSKSVYWYQQKLGQAPVMIIYRDNNRPTGIPERFSGASSGNTATLTISGSLAEDEADYYCQVWDSRTQALFGGGTHLTVL"
recorded_measurement = 580000

[[record]]
binder = "PMX037 (antibody, V domains shown, also called PMX37) VH: EVQLLESGGDLVKPGGSLRLSCVASGFTFSNYEMYWVRQAPGKGLEWVARFYESGSTTYSAEAVPGRFTISRDNAKNMAYLQMNSLRAEDTAVYYCASASSSSWRFDYWGQGTLVTVSS VL: SYVLTQLPSVSVTLGQTARITCGGDSIGSKNVYWFQQKLGQAPVLIIYDDRSRPSGIPERFSGANSGNTATLTISGALAEDEADYYCQVWDSSTGVFGGGTHLTVL"
recorded_measurement = "1.39e+06"


Now turn to the next binder.
Task: What value of measured GEO mean difference is listed for PMX045 (antibody, V domains shown, also called PMX45) VH: EVQLVESGGDLVKPGGSLRLSCVASGFTFSSYHMTWVRQAPGKGLQWVAYITSGGITTSYADAVKGRFTISRDNAKNTLYLQMSSLRAEDTAMYYCARDLVLLLGGADYWGQGTLVTVSS VL: SYELTQPPSVNVTLRETAHITCGGDSIGRKYVQWIQQNPGQAPVVIIYKDSNRPTGIPERFSGANSGNTATLTISGALAEDEADYYCQVGDSGTKAVFGGGTHLTVL ?
Result: 1.44e+06
